test description: chemical genetic growth profiling, strain panel (AID 1159580);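 also: tested at 20 µM; growth read once vehicle control cultures reached saturation at 30 °C; 1 = growth at the plate median or of vehicle wells; lower values mean less growth of the strain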
applied conditions: S. cerevisiae deletion strains, growth OD, locus YLL001W, strain dnm1, hits give low values
In all, about 5,500 compounds went through this assay and about 2,000 (36%) were called active. About 18% were inconclusive and are not listed. The list shows a part of the results.

compound	normalized growth
COc1c(OC)c2occc2c2oc(=O)ccc12	0.993 (inactive)
Nc1ccn(C2O[C@H](CO)[C@@H](O)[C@@H]2O)c(=O)n1 (stereo partly drawn)	1.07 (inactive)
C[C@@H]1C(=O)OC2[C@H](O)C34[C@@H]5OC(=O)[C@@]3(O[C@@H]3OC(=O)[C@H](O)[C@@]34[C@H](C(C)(C)C)[C@H]5O)[C@]21O (stereo partly drawn)	0.987 (inactive)
Cc1c(Cl)cccc1Nc1ccccc1C(=O)O	0.814 (active)
CC1C[C@H]2CC(=O)[C@H]3CCCN4CCC[C@H]2[C@]34C1 (stereo partly drawn)	1.01 (inactive)
CCCCCCCCCCCCCCCC(=O)OC1C(SC)OC(C(NC(=O)C2CC(CCC)CN2C)C(C)Cl)C(O)C1O (stereo not drawn)	0.99 (inactive)
C=C1CCC2C(CC2(C)C)C(=C)CC/C1=N\O (stereo not drawn)	1.01 (inactive)
COc1c2ccoc2c(OC)c2oc(=O)ccc12	0.909 (inactive)
O=C(O)CN(CC(=O)O)Cc1cc2c(-c3ccccc3C(=O)O)c3cc(CN(CC(=O)O)CC(=O)O)c(=O)cc-3oc2cc1O	0.984 (inactive)
C=CCSCC1Nc2cc(Cl)c(S(N)(=O)=O)cc2S(=O)(=O)N1 (stereo not drawn)	0.997 (inactive)
CC(C)(C)CC(C)(C)c1ccc(O)c(Cc2ccc(Cl)cc2Cl)c1	1.04 (inactive)
CCCCCCOc1ccccc1C(N)=O	0.887 (active)
O=C(Cn1ccnc1[N+](=O)[O-])NCCO	1.01 (inactive)
CO[C@@]1(NC(=O)CSCC#N)C(=O)N2C(C(=O)O)=C(CSc3nnnn3C)CSC21 (stereo partly drawn)	0.96 (inactive)
O=c1cc[nH]c(=S)[nH]1	1.04 (inactive)
CC(=O)Oc1c(C)cccc1C(=O)O	0.986 (inactive)
OC(Cn1cncn1)(Cn1cncn1)c1ccc(F)cc1F	1.01 (inactive)
CCN(CC)CCOC(=O)c1ccc(N)cc1	1.02 (inactive)
COC(=O)C1=CCCN(C)C1	0.989 (inactive)
CCCCNc1ccc(C(=O)OCCN(C)C)cc1	1 (inactive)
Cc1cccc(Nc2ccccc2C(=O)O)c1C	0.914 (inactive)
Cc1ccc(Cl)c(Nc2ccccc2C(=O)O)c1Cl	0.815 (active)
CCCCC(=O)Oc1ccccc1C(=O)O	0.985 (inactive)
CC(C)C(C)/C=C/C(C)C1CCC2C3=CC=C4CC(O)CCC4(C)C3CCC21C (stereo not drawn)	0.96 (inactive)
CC(=O)N[C@@H](CS)C(=O)O	0.994 (inactive)
CCCCOC(=O)c1ccc(N)cc1	0.825 (active)
CC(C)C(C)/C=C/C(C)[C@H]1CCC2C3=CCC4CC(=O)CC[C@]4(C)C3CC[C@@]21C (stereo partly drawn)	0.997 (inactive)
CC1OC1P(=O)(O)O (stereo not drawn)	0.982 (inactive)
CCCCOC(=O)c1ccccc1C(=O)OCCCC	0.987 (inactive)
Oc1ccc(Cl)cc1Cc1cc(Cl)ccc1O	0.113 (active)
O=c1cc(-c2ccccc2O)oc2cc(O)ccc12	0.987 (inactive)
CCCCN(CCCC)CCCOC(=O)c1ccc(N)cc1	0.996 (inactive)
O=C(O)CN1C(=O)c2cccc3cccc(c23)C1=O	0.966 (inactive)
